Target: Axl (Homo sapiens)
Construct: endogenous in cells; host or cells: HeLa
Sequence (P30530 26-894): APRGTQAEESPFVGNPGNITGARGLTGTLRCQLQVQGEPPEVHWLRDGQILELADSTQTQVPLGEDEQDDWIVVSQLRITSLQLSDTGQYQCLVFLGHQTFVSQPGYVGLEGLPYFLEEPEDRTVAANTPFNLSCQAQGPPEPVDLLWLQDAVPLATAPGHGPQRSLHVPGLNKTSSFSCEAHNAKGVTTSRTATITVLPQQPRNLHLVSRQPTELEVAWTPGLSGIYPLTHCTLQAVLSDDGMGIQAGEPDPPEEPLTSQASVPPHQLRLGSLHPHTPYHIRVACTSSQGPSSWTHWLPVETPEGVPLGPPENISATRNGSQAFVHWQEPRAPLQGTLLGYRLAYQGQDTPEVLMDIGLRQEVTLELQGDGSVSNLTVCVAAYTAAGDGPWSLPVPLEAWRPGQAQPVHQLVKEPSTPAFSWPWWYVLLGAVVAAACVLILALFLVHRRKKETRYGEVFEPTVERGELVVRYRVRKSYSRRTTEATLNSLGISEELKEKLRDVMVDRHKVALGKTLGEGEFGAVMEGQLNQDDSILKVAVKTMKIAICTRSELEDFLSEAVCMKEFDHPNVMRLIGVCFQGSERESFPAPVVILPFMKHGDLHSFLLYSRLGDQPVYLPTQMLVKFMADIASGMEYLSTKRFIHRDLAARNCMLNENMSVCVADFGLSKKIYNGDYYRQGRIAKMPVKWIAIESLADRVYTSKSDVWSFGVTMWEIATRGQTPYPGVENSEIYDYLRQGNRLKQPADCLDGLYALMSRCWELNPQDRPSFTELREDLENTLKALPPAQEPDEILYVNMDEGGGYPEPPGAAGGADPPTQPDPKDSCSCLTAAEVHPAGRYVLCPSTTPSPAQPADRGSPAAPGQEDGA
Assay: Phospho-AKT in-cell Western assay (inhibition of Axl activity)
Type: cell-based
Conditions: Table 3, formula (Ic); Hela cells, Axl antibody cross-linking stimulation, phospho-Akt chemiluminescence normalized to relative cell number
Endpoint name: IC50

Smiles: CCN(CC)CCN1CCOc2cc(Nc3ncc(C(F)(F)F)c(N[C@@]4(C)[C@@H](C(=O)NC)C[C@H]5C[C@@H]4C5(C)C)n3)ccc21
Measurement: < 1000 nM
//
Smiles: CNC(=O)[C@H]1C[C@H]2C[C@H](C2(C)C)[C@@]1(C)Nc1nc(Nc2ccc3c(c2)OCCN3CCN2CCOCC2)ncc1F
Measurement: 1000 to 10000 nM
//
Smiles: CCN(CC)CCN1CCOc2cc(Nc3ncc(Cl)c(N[C@@]4(C)[C@@H](C(=O)NC)C[C@H]5C[C@@H]4C5(C)C)n3)ccc21
Measurement: < 1000 nM
//
Smiles: CNC(=O)[C@H]1C[C@H]2C[C@H](C2(C)C)[C@@]1(C)Nc1nc(Nc2ccc3c(c2)OCC(=O)N3)ncc1Cl
Measurement: > 20000 nM
//
Smiles: CNC(=O)[C@H]1C[C@H]2C[C@H](C2(C)C)[C@@]1(C)Nc1nc(Nc2ccc3c(c2)OCCN3CCN2CCCCC2)ncc1F
Measurement: < 1000 nM
//
Smiles: CC(C)NC(=O)[C@H]1C[C@H]2C[C@H](C2(C)C)[C@@]1(C)Nc1nc(Nc2ccc3c(c2)OCCN3CCN(C)C)ncc1Cl
Measurement: < 1000 nM
